- TGT: human oxytocin receptor (Homo sapiens)
- Construct: host or cells: CHO cells (pcDNA3.1 vector)
- Sequence (P30559 whole entry): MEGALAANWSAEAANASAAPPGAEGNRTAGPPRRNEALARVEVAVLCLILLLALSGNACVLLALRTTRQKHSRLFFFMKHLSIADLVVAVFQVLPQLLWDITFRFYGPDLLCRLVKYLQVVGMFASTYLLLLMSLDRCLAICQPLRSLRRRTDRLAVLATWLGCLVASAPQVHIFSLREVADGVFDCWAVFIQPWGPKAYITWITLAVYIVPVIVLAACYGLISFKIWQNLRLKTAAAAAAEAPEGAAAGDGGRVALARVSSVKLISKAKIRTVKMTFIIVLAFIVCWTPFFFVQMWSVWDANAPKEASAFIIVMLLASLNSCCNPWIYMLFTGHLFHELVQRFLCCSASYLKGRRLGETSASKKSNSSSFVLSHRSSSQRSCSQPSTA
- ASSAY_METHOD_TEXT: Oxytocin binding in Chinese Hamster Ovary cell membranes expressing human oxytocin receptors
- CONDITION: 100 nM, CHO cell membranes, [3H]oxytocin, values without parentheses, read-out: OT % inhibition @ 100% nM
Label scheme for inhibition at 0.1 µM: lower than 80% is No, 80% and above is Yes.

Cc1cc(C(=O)N2Cc3ccc(C(=O)N(C)C4CCN(C)C4)n3Cc3ccccc32)ccc1-c1ccccc1C(F)(F)F (stereo not shown) = Yes
C=CCN1CCN(C(=O)c2ccc3n2Cc2ccccc2N(C(=O)c2ccc(-c4ccccc4C)cc2)C3)CC1 = No
COc1cccc(-c2cc(OC)c(C(=O)N3Cc4ccc(C(=O)N(C)C5CCN(C)C5)n4Cc4ccccc43)cc2Cl)c1 (stereo not shown) = Yes

Now turn to the next molecule.
Ask | Given the entry C=CCN1CCN(C(=O)c2ccc3n2Cc2ccccc2N(C(=O)c2ccc(-n4c(C)ccc4C)c(OC)c2)C3)CC1 , answer whether its inhibition at 0.1 µM meets or surpasses 80%.
Reply | No

* * *

- TGT: human vasopressin V2 receptor subtype (Homo sapiens, UniProt P30518)
- Construct: host or cells: CHO cells (pZeoSV vector)
- Sequence (P30518 whole entry): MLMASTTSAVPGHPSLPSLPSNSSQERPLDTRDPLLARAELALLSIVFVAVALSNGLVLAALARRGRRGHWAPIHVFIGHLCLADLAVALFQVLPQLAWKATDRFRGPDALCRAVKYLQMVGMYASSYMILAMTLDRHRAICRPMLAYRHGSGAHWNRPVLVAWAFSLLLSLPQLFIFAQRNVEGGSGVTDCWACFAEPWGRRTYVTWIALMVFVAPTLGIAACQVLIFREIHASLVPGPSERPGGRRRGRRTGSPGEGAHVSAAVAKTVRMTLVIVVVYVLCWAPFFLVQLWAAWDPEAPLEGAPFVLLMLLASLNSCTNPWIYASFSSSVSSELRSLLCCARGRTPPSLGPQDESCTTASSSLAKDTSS
- ASSAY_METHOD_TEXT: Vasopressin binding in Chinese Hamster Ovary cell membranes expressing human vasopressin V2 subtype receptors
- CONDITION: 100 nM, CHO cell membranes, [3H]arginine vasopressin, values without parentheses
OBSERVABLE: inhibition at 0.1 µM (%)
Write the number in % without appending the unit.

Below are worked cases with known answers.
COc1cccc(-c2cc(OC)c(C(=O)N3Cc4ccc(C(=O)NCCCN(C)C)n4Cc4ccccc43)cc2Cl)c1 = 7
COc1cccc(-c2cc(OC)c(C(=O)N3Cc4ccc(C(=O)N[C@@H](Cc5c[nH]cn5)C(N)=O)n4Cc4ccccc43)cc2Cl)c1 = 26
COc1cccc(-c2ccc(C(=O)N3Cc4ccc(C(=O)n5ccnc5)n4Cc4ccccc43)cc2C)c1 = 7

Okay, next one:
The recorded inhibition at 0.1 µM for entry COc1cc(-c2ccccc2C)c(Cl)cc1C(=O)N1Cc2ccc(C(=O)N(C)C3CCN(C)C3)n2Cc2ccccc21 (stereo not shown) equals 9

* * *

- TGT: human vasopressin V1a receptor subtype (Homo sapiens)
- Construct: host or cells: CHO cells (pZeoSV vector for the Thibonnier line)
- Sequence (P37288 whole entry): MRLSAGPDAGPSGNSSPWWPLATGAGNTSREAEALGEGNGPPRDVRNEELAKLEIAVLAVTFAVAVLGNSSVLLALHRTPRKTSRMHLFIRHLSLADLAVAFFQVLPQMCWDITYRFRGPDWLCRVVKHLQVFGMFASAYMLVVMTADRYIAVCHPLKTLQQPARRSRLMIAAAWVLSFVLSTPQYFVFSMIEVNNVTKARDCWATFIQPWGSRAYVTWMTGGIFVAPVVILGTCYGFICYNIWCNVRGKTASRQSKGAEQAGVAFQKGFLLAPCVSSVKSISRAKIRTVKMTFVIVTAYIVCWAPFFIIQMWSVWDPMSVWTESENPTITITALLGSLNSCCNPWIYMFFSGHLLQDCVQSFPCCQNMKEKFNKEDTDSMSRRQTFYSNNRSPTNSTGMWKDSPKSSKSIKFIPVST
- ASSAY_METHOD_TEXT: Vasopressin binding in Chinese Hamster Ovary cell membranes expressing human vasopressin V1a subtype receptors
- CONDITION: 100 nM, CHO cell membranes, [3H]Manning ligand, values without parentheses
Recorded measurements of V1a % inhibition @ 100 nM, one per entry
Write the number in % without appending the unit.

Below are worked cases with known answers.
Cc1ccccc1-c1ccc(C(=O)N2Cc3ccc(C(=O)N4CC[C@@H](N(C)C)C4)n3Cc3ccccc32)cc1 [Example 280] = 77
COc1cccc(-c2cc(OC)c(C(=O)N3Cc4ccc(C(=O)N5CCC[C@H]5CN5CCCC5)n4Cc4ccccc43)cc2Cl)c1 [Example 268] = 6
Cc1cccc(N2CCN(C(=O)c3ccc4n3Cc3ccccc3N(C(=O)c3ccc(-c5ccccc5C(F)(F)F)c(C)c3)C4)CC2C)c1 (stereo not shown) [Example 5] = −6

The recorded V1a % inhibition @ 100 nM for entry Cc1cc(C(=O)N2Cc3ccc(C(=O)NCCCN(C)C)n3Cc3ccccc32)ccc1-c1ccccc1C(F)(F)F [Example 84] equals 1
